FYI, the data here is from patent US20250059198A1.

compounds and their reported DC50
ASSAY_TARGET: BRM (Homo sapiens)
Construct: Western Blot Screen of BRM Degradation in SW1573 Cells; endogenous in cells; host or cells: SW1573 cells
Sequence (P51531 whole entry): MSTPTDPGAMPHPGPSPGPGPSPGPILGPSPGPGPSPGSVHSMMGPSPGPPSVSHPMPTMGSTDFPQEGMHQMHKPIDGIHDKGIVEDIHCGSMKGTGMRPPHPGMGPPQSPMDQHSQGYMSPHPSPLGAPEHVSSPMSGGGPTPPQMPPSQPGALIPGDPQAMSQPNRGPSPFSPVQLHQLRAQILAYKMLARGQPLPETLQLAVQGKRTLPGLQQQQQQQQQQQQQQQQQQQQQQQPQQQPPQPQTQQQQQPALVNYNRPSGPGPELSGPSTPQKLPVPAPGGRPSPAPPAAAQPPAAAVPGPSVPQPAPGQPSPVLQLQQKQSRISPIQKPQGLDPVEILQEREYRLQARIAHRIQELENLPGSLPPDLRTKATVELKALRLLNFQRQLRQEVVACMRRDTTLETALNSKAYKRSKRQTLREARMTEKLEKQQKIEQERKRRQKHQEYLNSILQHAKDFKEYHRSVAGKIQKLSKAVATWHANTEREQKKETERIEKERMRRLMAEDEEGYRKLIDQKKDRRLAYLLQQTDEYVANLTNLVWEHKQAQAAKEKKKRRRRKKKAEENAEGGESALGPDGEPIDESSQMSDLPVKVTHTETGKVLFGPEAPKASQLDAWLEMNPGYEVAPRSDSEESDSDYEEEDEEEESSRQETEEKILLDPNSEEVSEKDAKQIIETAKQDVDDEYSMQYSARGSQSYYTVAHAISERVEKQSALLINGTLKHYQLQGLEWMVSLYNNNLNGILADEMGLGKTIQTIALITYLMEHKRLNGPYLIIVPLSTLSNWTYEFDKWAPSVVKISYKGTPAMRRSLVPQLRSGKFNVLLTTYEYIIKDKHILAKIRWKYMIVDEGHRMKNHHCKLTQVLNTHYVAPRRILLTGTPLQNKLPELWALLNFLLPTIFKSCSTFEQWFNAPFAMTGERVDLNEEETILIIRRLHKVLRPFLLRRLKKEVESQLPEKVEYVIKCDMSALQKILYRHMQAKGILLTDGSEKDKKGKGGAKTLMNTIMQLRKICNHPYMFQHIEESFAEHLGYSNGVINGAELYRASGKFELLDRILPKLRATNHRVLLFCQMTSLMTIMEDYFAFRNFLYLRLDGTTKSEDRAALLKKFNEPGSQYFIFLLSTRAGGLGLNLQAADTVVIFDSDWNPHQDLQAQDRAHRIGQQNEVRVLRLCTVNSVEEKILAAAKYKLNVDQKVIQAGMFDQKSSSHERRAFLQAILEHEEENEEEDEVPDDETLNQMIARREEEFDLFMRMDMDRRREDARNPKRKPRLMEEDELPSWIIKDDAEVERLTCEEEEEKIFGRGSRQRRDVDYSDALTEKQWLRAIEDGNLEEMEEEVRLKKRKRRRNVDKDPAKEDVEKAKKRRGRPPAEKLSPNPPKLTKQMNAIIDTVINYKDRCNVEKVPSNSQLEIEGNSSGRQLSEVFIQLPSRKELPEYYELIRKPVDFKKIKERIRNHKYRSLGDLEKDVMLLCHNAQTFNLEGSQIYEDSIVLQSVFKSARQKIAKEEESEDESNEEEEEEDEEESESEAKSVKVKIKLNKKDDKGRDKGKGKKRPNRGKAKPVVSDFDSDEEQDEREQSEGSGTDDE
ASSAY_PROTOCOL: BRM degradation (Dmax and DC50) in SW1573 cells, Western blot screen / In-Cell Western screen
Assay type: cell-based
CONDITION_SET: overnight (18-20 hours) treatment
Description: To assess BRM degradation (Dmax and DC50) cells were seeded at 8000/well in 96-well black/clear-bottom plates in 180 μL DMEM growth media (containing 1% pen-strep, 1% HEPES and 10% FBS) per well. Plates were incubated overnight to allow adhesion. […] To read each plate TBS-T was removed, and each plate was inverted tapped on a paper towel. […]

## Input Enter measured DC50, system BRM (Homo sapiens), for the compound shown: CC(C)[C@H](C(=O)N1C[C@H](O)C[C@H]1C(=O)N[C@@H](C)c1ccc(-c2ccnn2C)cc1)c1cc(N2CCC(CN3CCC(CN4CCC5(CC4)CC(Oc4cc(N6C7CCC6CN(c6cc(-c8ccccc8O)nnc6N)C7)ccn4)C5)CC3)CC2)no1 [Compound 33]
## Output 10 to 30 nM

## Input State measured DC50 of the compound Cc1ncsc1-c1ccc([C@H](C)NC(=O)[C@@H]2C[C@@H](O)CN2C(=O)[C@@H](c2cc(N3CCC(CN4CCC5(CC4)CC(N4CCC(C(=O)N6C7CCC6CN(c6cc(-c8ccccc8O)nnc6N)C7)CC4)C5)CC3)no2)C(C)C)cc1 [Compound 58] with BRM (Homo sapiens).
## Output < 2.5 nM

## Input Give reported DC50 for Cc1ncsc1-c1ccc([C@H](C)NC(=O)[C@@H]2C[C@@H](O)CN2C(=O)[C@@H](c2cc(N3CCC(CN4CCC5(CC4)CC(N4CCN(C)[C@@H](CN6C7CCC6CN(c6cc(-c8ccccc8O)nnc6N)C7)C4)C5)CC3)no2)C(C)C)cc1 [Compound 133] (BRM (Homo sapiens))
## Output < 2.5 nM

## Input Determine reported DC50 for CC(C)[C@@H](C(=O)N1C[C@H](O)C[C@H]1C(=O)N[C@@H](C)c1ccc(C#N)cc1)c1cc(N2CCC(CN3CCC(O[C@H]4C[C@H](N5CCC(C(C)n6cc(C#Cc7cc(-c8ccccc8O)nnc7N)cn6)CC5)C4)CC3)CC2)no1 (stereo partly shown) [Compound 78] ; test system: BRM (Homo sapiens).
## Output 2.5 to 10 nM

## Input Specify DC50 for CC(C)[C@H](C(=O)N1C[C@H](O)C[C@H]1C(=O)N[C@@H](C)c1ccc(-c2ccnn2C)cc1)c1cc(N2CCC(OC3CCN(CC4CC(N5CCC([C@@H](C)n6cc(C#Cc7cc(-c8ccccc8O)nnc7N)cn6)CC5)C4)CC3)CC2)no1 (stereo partly shown) [Compound 109] , system BRM (Homo sapiens).
## Output ≥ 30 nM

## Input Look up and report measured DC50 (BRM (Homo sapiens)) for the following compound: Cc1ncsc1-c1ccc([C@H](C)NC(=O)[C@@H]2C[C@@H](O)CN2C(=O)[C@@H](c2cc(N3CCC(CN4CCC(O[C@H]5C[C@H](N6CCC(C#N)(CN7C8CCC7CN(c7cc(-c9ccccc9O)nnc7N)C8)CC6)C5)CC4)CC3)no2)C(C)C)cc1 [Compound 20]
## Output < 2.5 nM

## Input Fill: DC50 (BRM (Homo sapiens)) for this compound Cc1ncsc1-c1ccc([C@H](C)NC(=O)[C@@H]2C[C@@H](O)CN2C(=O)C(c2cc(N3CCC(OC(=O)N4CCC(O[C@H]5C[C@H](Oc6cc(N7CCN(c8cc(-c9ccccc9O)nnc8N)CC7)ccn6)C5)CC4)CC3)no2)C(C)C)cc1 (stereo partly shown) [Compound 145]
## Output 2.5 to 10 nM

## Input Identify measured DC50 obtained with BRM (Homo sapiens) for Cc1ncsc1-c1ccc([C@H](C)NC(=O)[C@@H]2C[C@@H](O)CN2C(=O)[C@@H](c2cc(N3CCC(CN4CC[C@@H](Oc5cc(N6C7CCC6CN(c6cc(-c8ccccc8O)nnc6N)C7)ccn5)[C@H](F)C4)CC3)no2)C(C)C)cc1 [Compound 59] .
## Output 10 to 30 nM

## Input Would you please give the reported DC50 of CC(C)[C@@H](C(=O)N1C[C@H](O)C[C@H]1C(=O)N[C@@H](C)c1ccc(C#N)cc1)c1cc(N2CCC(C(=O)N3CCC(O[C@H]4C[C@H](Oc5cc(N6C7CCC6CN(c6cc(-c8ccccc8O)nnc6N)C7)ccn5)C4)CC3)CC2)no1 [Compound 138] with BRM (Homo sapiens)?
## Output < 2.5 nM

## Input Please report the measured DC50 for CC(C)[C@H](C(=O)N1C[C@H](O)C[C@H]1C(=O)N[C@@H](C)c1ccc(-c2ccnn2C)cc1)c1cc(N2CCC(CN3CCC(O[C@H]4C[C@H](OC(=O)N5CCN(c6cc(-c7ccccc7O)nnc6N)CC5)C4)CC3)CC2)no1 [Compound 114] tested on BRM (Homo sapiens).
## Output ≥ 30 nM

## Input Please respond with reported DC50 (system BRM (Homo sapiens)) for Cc1ncsc1-c1ccc([C@H](C)NC(=O)[C@@H]2C[C@@H](O)CN2C(=O)[C@@H](c2cc(N3CCN(C(=O)N4CCC(O[C@H]5C[C@H](Oc6cc(N7C8CCC7CN(c7cc(-c9ccccc9O)nnc7N)C8)ccn6)C5)CC4)CC3)no2)C(C)C)cc1 [Compound 123] .
## Output < 2.5 nM

## Input Please indicate recorded DC50 of CC(C)[C@@H](C(=O)N1C[C@H](O)C[C@H]1C(=O)N[C@@H](C)c1ccc(-c2ccnn2C)cc1)c1cc(N2CCC(CN3CCC(O[C@H]4C[C@H](Oc5cc(/C=C(\F)c6cc(-c7ccccc7O)nnc6N)ccn5)C4)CC3)CC2)no1 [Compound 51] measured with BRM (Homo sapiens).
## Output < 2.5 nM

## Input # return DC50 for CC(C)[C@H](C(=O)N1C[C@H](O)C[C@H]1C(=O)N[C@@H](C)c1ccc(C#N)cc1)c1cc(O[C@H]2C[C@H](C(C)(C)N3CCC(O[C@H]4C[C@H](Oc5cc(N6C7CCC6CN(c6cc(-c8ccccc8O)nnc6N)C7)ccn5)C4)CC3)C2)no1 [Compound 93] , test system: BRM (Homo sapiens)
## Output ≥ 30 nM

## Input Provide the reported DC50 (system: BRM (Homo sapiens)) for CC(C)[C@@H](C(=O)N1C[C@H](O)C[C@H]1C(=O)N[C@@H](C)c1ccc(-c2ccnn2C)cc1)c1cc(N2CCC(CN3CCC(Oc4cc(N5CCN(c6cc(-c7ccccc7O)nnc6N)CC5)ccn4)CC3)CC2)no1 [Compound 41]
## Output < 2.5 nM

## Input Under BRM (Homo sapiens): report DC50 of CC(C)[C@@H](C(=O)N1C[C@H](O)C[C@H]1C(=O)N[C@@H](C)c1ccc(C#N)cc1)c1cc(N2CCC(CN3CCC(O[C@H]4C[C@H](Oc5cc(N6C7CCC6CN(c6cc(-c8ccccc8O)nnc6N)CC7)ccn5)C4)CC3)CC2)no1 (stereo partly shown) [Compound 14] .
## Output < 2.5 nM

## Input With BRM (Homo sapiens) as the test system, provide measured DC50 for this compound: CC(C)[C@@H](C(=O)N1C[C@H](O)C[C@H]1C(=O)N[C@H](C)c1cc(F)c(C#N)cc1F)c1cc(N2CCC(CN3CCC(O[C@H]4C[C@H](Oc5cc(N6C7CCC6CN(c6cc(-c8ccccc8O)nnc6N)C7)ccn5)C4)CC3)CC2)no1 [Compound 3]
## Output ≥ 30 nM
